Below is a list of entries, each paired with its recorded ΔTm value.
- Tested System: Glycogen synthase kinase-3 beta (Homo sapiens) (UniProt P49841)
- Sequence (P49841 whole entry, looked up): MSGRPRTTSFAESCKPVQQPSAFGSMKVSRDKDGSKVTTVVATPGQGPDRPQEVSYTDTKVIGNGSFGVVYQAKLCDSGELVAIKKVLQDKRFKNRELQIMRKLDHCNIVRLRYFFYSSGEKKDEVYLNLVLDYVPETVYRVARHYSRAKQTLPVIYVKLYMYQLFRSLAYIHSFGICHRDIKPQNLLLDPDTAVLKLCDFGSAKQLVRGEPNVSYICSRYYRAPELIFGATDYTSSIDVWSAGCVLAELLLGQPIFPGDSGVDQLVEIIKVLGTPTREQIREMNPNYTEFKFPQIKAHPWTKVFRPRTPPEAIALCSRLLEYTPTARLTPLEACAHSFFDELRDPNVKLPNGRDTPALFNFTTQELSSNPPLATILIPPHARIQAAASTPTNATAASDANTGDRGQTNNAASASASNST
- Condition Context: Compound concentration 20.0 uM, Protein concentration 2.0 uM, Result type QC Liability
- Description: Thermal Shift Assay. Domain: start/stop: M26-R383
Write the number in c without appending the unit.

Here are 2 compounds together with their reported answers.
CS(=O)(=O)N1CCCC(NC(=O)[C@H](CCC2CCCCC2)NC(=O)c2ccc(CNC(=O)c3cnc4ccccn34)cc2)C1 (some centres undefined) ... -0.0668
CN(C)C(=O)c1ccc(-c2cc(C(=O)N[C@@H]3CCc4ccccc43)no2)cc1O ... -0.463

Provide the documented ΔTm with Glycogen synthase kinase-3 beta (Homo sapiens) (UniProt P49841) as the system for `CN(c1ncccc1CNc1ccnc(-c2nc3c(F)c(Cl)ccc3[nH]2)n1)S(C)(=O)=O`
0.69

Provide the documented ΔTm with Glycogen synthase kinase-3 beta (Homo sapiens) (UniProt P49841) as the system for `O=C(NCCCN1CCOC1=O)c1cnc(NCc2cc(Br)ccc2Br)nc1NC1CCCC1`
0

* * *

- Tested System: Cyclin-dependent kinase 2 (Homo sapiens)
- Condition Context: Compound concentration 20.0 uM, Protein concentration 2.0 uM, Result type QC Liability
- Description: Thermal Shift Assay. Domain: start/stop: M1-L298
Measure Name: ΔTm (c)
Write the number in c without appending the unit.

CN(C)C(=O)c1ccc(-c2cc(C(=O)N[C@@H]3CCc4ccccc43)no2)cc1O ... -0.0936
CS(=O)(=O)N1CCCC(NC(=O)[C@H](CCC2CCCCC2)NC(=O)c2ccc(CNC(=O)c3cnc4ccccn34)cc2)C1 (some centres undefined) ... -0.19
CN(c1ncccc1CNc1ccnc(-c2nc3c(F)c(Cl)ccc3[nH]2)n1)S(C)(=O)=O ... 0.96

Given the compound `O=C(NCCCN1CCOC1=O)c1cnc(NCc2cc(Br)ccc2Br)nc1NC1CCCC1` , what is its reported ΔTm?
-0.772

The reported numbers originate from ChEMBL document CHEMBL5058541.
